experiment: Permeability across apical to basolateral side in MDCK-MDR1 cells at 10 uM incubated for 1 hr by mass spectrometric method; format: ADME, cell-based, Canis lupus familiaris; settings: dog, mdck-mdr1, 1 h
We begin with a simple list: items and their reported permeability.

As a guide, the following entries are already answered.
COCCOC(=O)NC1CCN(c2ncnc3c2nc(-c2ccccc2Cl)n3-c2ccc(Cl)cc2)CC1; 13%
CCCCC(=O)NC1CCN(c2ncnc3c2nc(-c2ccccc2Cl)n3-c2ccc(C(F)(F)F)nc2)CC1; 28%

Recorded permeability for CCCCCS(=O)(=O)NC1CCN(c2ncnc3c2nc(-c2ccccc2Cl)n3-c2ccc(Cl)cc2)CC1 , please?
< 0.1%

Recorded permeability for Clc1ccc(-n2c(-c3ccccc3Cl)nc3c(N4CCC(Nc5ccccn5)CC4)ncnc32)cc1 , please?
0.1%

Recorded permeability for N=C(NC1CCN(c2ncnc3c2nc(-c2ccccc2Cl)n3-c2ccc(Cl)cc2)CC1)c1ccc(F)cc1 , please?
0.2%

Recorded permeability for O=S(=O)(CCC(F)(F)F)NC1CCN(c2ncnc3c2nc(-c2ccccc2Cl)n3-c2ccc(Cl)cc2)CC1 , please?
1%

Recorded permeability for O=C(NC1CCN(c2ncnc3c2nc(-c2ccccc2Cl)n3-c2ccc(Cl)cc2)CC1)c1ccc(F)c(F)c1 , please?
0.2%

Recorded permeability for O=S(=O)(NC1CCN(c2ncnc3c2nc(-c2ccccc2Cl)n3-c2ccc(Cl)cc2)CC1)c1ccc(F)cc1 , please?
0.1%

Recorded permeability for O=C(NC1CCN(c2ncnc3c2nc(-c2ccccc2Cl)n3-c2ccc(Cl)cc2)CC1)c1ccc(F)cc1F , please?
< 0.1%

Recorded permeability for O=C(NC1CCN(c2ncnc3c2nc(-c2ccccc2Cl)n3-c2ccc(Cl)cc2)CC1)c1ccc(F)cc1 , please?
0.2%

* * *

species: Homo sapiens; assay: Selectivity ratio of Ki for displacement of [3H]-CP55940 from human CB2 receptor expressed in CHO cell membranes to Ki for displacement of [3H]-CP55940 from human CB1 receptor expressed in CHO cell membranes
Think of 600 as a floor: if Ratio Ki stands on it or above, it is class 1; beneath it, class 0.

Clc1ccc(-n2c(-c3ccccc3Cl)nc3c(N4CCC(c5nc6ccccc6[nH]5)CC4)ncnc32)cc1; class 0
O=S(=O)(NC1CCN(c2ncnc3c2nc(-c2ccccc2Cl)n3-c2ccc(OC(F)F)nc2)CC1)c1ccccc1F; class 0
O=C(NC1CCN(c2ncnc3c2nc(-c2ccccc2Cl)n3-c2ccc(Cl)cc2)CC1)c1ccccc1F; class 1

API: above_or_equal(metric=Ratio Ki, cutoff=600) for item O=S(=O)(NC1CCN(c2ncnc3c2nc(-c2ccccc2Cl)n3-c2ccc(Cl)cc2)CC1)c1ccc(F)c(F)c1
class 1

API: above_or_equal(metric=Ratio Ki, cutoff=600) for item O=S(=O)(NC1CCN(c2ncnc3c2nc(-c2ccccc2Cl)n3-c2ccc(Cl)cc2)CC1)c1ccc(F)cc1
class 1

* * *

We begin with a simple list: items and their reported logD.
test: Lipophilicity, log D of compound; assay type: physicochemical; details: octanol/water
Please reply with the value in numeric form only.

N=C(NC1CCN(c2ncnc3c2nc(-c2ccccc2Cl)n3-c2ccc(Cl)cc2)CC1)c1ccc(F)cc1; 4.1

Proceed to the following item.
Recorded logD for N=C(Nc1ccc(F)cc1)NC1CCN(c2ncnc3c2nc(-c2ccccc2Cl)n3-c2ccc(Cl)cc2)CC1 , please?
4.6

These entries and their values trace back to ChEMBL document CHEMBL4385641.
